Attribution: paper PMC10342010

Test system: T-47D cells
Assay: Cytotoxic activity (MTT assay)
Assay type: cell-based, human
Settings: T-47D, MTT, 24 h; read-out: Cytotoxicity, IC50 T-47D
RECORDED_ENDPOINT: IC50 (µM)
Give the value, in units of µM, as a plain number.

MOLECULE: COC1C(O)C(CO)OC(OC2C(O)COC(OC3C(C)OC(OC4C(OC5CCC6(C)C7CCC89C(=O)OC(C)(CC(=O)CC(C)C)C8C(OC(C)=O)CC9(C)C7=CCC6C5(C)C)OCC(OS(=O)(=O)[O-])C4O)C(O)C3O)C2O)C1O.[Na+] (centres unmarked) [okhotoside A1-1]
IC50, µM: 8.46

Turning to the following molecule.
Form field: IC50 recorded for CO[C@@H]1[C@@H](O)[C@H](O[C@@H]2[C@@H](O)[C@H](O[C@H]3[C@H](O)[C@@H](O[C@H]4OC[C@H](O)[C@H](O)[C@@H]4O)[C@H](O[C@H]4[C@H](O[C@H]5CC[C@]6(C)[C@@H]7CC[C@]89C(=O)O[C@@](C)(C[C@@H](O)CC(C)C)[C@H]8[C@@H](OC(C)=O)C[C@@]9(C)C7=CC[C@H]6C5(C)C)OC[C@@H](OS(=O)(=O)O)[C@@H]4O)O[C@@H]3C)OC[C@H]2O)O[C@H](CO)[C@H]1O [frondoside D] with T-47D cells (enter value)
11.8

* * *

Experiment: Cytotoxic activity (MTS assay)
Format: cell-based, human
Settings: human
Description: Then, the cells were incubated with 10 µL MTS ([3-(4,5-dimethylthiazol-2-yl)-5-(3-carboxymethoxyphenyl)-2-(4-sulfophenyl)-2H-tetrazolium) for 4 h, and the absorbance in each well was determined at 490/630 nm with a PHERA star FS plate reader (BMG Labtech, Ortenberg, Germany). The experiments were conducted in triplicate.
RECORDED_ENDPOINT: IC50 at 24 h (µM)
Give the value, in units of µM, as a plain number.

MOLECULE: CO[C@@H]1[C@@H](O)[C@H](O[C@@H]2[C@@H](O)[C@H](O[C@H]3[C@H](O)[C@@H](O[C@@H]4OC[C@@H](O)[C@H](O)[C@H]4O)[C@H](O[C@H]4[C@H](O[C@H]5CC[C@]6(C)[C@@H]7CCC89C(=O)O[C@@](C)([C@H](O)C(=O)CC(C)C)[C@H]8[C@@H](OC(C)=O)C[C@@]9(C)C7=CC[C@H]6C5(C)C)OC[C@@H](OS(=O)(=O)O)[C@@H]4O)O[C@@H]3C)OC[C@H]2O)O[C@H](CO)[C@H]1O (stereo partly drawn) [djakonovioside B1 (4)]
UNIT_TEXT: µM
QUANTITATIVE_RESULT: 20.1
--
MOLECULE: CO[C@@H]1[C@@H](O)[C@H](O[C@@H]2[C@@H](O)[C@H](O[C@H]3[C@H](O)[C@@H](O)[C@H](O[C@H]4[C@H](O[C@H]5CC[C@]6(C)[C@@H]7CCC89C(=O)O[C@@](C)([C@H](O)C(=O)CC(C)C)[C@H]8[C@@H](OC(C)=O)C[C@@]9(C)C7=CC[C@H]6C5(C)C)OC[C@@H](OS(=O)(=O)O)[C@@H]4O)O[C@@H]3C)OC[C@H]2O)O[C@H](CO)[C@H]1O (stereo partly drawn) [djakonovioside A1 (2)]
UNIT_TEXT: µM
QUANTITATIVE_RESULT: 4.44
--
MOLECULE: CO[C@@H]1[C@@H](O)[C@H](O[C@@H]2[C@@H](O)[C@H](O[C@H]3[C@H](O)[C@@H](O)[C@H](O[C@H]4[C@H](O[C@H]5CC[C@]6(C)[C@@H]7CCC89C(=O)O[C@@](C)(C[C@@H](O)CC(C)C)[C@H]8[C@@H](OC(C)=O)C[C@@]9(C)C7=CC[C@H]6C5(C)C)OC[C@@H](OS(=O)(=O)O)[C@@H]4O)O[C@@H]3C)OC[C@H]2O)O[C@H](CO)[C@H]1O (stereo partly drawn) [djakonovioside A (1)]
UNIT_TEXT: µM
QUANTITATIVE_RESULT: 6.05

Turning to the following molecule.
Please give the measured IC50 at 24 h for this molecule: COC1C(O)C(CO)OC(OC2C(O)COC(OC3C(C)OC(OC4C(OC5CCC6(C)C7CCC89C(=O)OC%10(C)CC(O)(CC(C)C)OC(CC8(C)C7=CCC6C5(C)C)C%109)OCC(OS(=O)(=O)O)C4O)C(OC4OCC(O)C(O)C4O)C3O)C2O)C1O (stereo not drawn) [djakonovioside B2 (5)]
38.6

* * *

Assay: Cytotoxic activity (MTT assay)
Format: cell-based, human
Conditions: human
IC50 at 24 h listing for selected compounds.

Please give the measured IC50 at 24 h for this compound: COC1C(O)C(CO)OC(OC2C(O)COC(OC3C(C)OC(OC4C(OC5CCC6(C)C7CCC89C(=O)OC%10(C)C(O)C(O)(CC(C)C)OC(CC8(C)C7=CCC6C5(C)C)C%109)OCC(OS(=O)(=O)O)C4O)C(O)C3O)C2O)C1O (centres unmarked) [djakonovioside A2 (3)]
> 50 µM

Please give the measured IC50 at 24 h for this compound: COC1C(O)C(CO)OC(OC2C(O)COC(OC3C(C)OC(OC4C(OC5CCC6(C)C7CCC89C(=O)OC%10(C)C(O)C(O)(CC(C)C)OC(CC8(C)C7=CCC6C5(C)C)C%109)OCC(OS(=O)(=O)O)C4O)C(OC4OCC(O)C(O)C4O)C3O)C2O)C1O (centres unmarked) [djakonovioside B4 (7)]
> 50 µM

* * *

Test: Cytotoxic activity (MTT assay)
Type: cell-based, human
Details: human
RECORDED_ENDPOINT: IC50 at 24 h

Please give the measured IC50 at 24 h for this compound: COC1C(O)C(CO)OC(OC2C(O)COC(OC3C(C)OC(OC4C(OC5CCC6(C)C7CCC89C(=O)OC%10(C)C(O)C(O)(CC(C)C)OC(CC8(C)C7=CCC6C5(C)C)C%109)OCC(OS(=O)(=O)O)C4O)C(OC4OCC(O)C(O)C4O)C3O)C2O)C1O (centres unmarked) [djakonovioside B4 (7)]
> 50 µM

Please give the measured IC50 at 24 h for this compound: COC1C(O)C(CO)OC(OC2C(O)COC(OC3C(C)OC(OC4C(OC5CCC6(C)C7CCC89C(=O)OC%10(C)C(O)C(O)(CC(C)C)OC(CC8(C)C7=CCC6C5(C)C)C%109)OCC(OS(=O)(=O)O)C4O)C(O)C3O)C2O)C1O (centres unmarked) [djakonovioside A2 (3)]
> 50 µM

* * *

EC50 at 48 h listing for selected compounds.
Experiment: Cytotoxic activity (MTT assay)
Format: cell-based, human
Details: human
Give the value, in units of µM, as a plain number.

COMPOUND: CO[C@@H]1[C@@H](O)[C@H](O[C@@H]2[C@@H](O)[C@H](O[C@H]3[C@H](O)[C@@H](O)[C@H](O[C@H]4[C@H](O[C@H]5CC[C@]6(C)[C@@H]7CCC89C(=O)O[C@@](C)(C[C@@H](O)CC(C)C)[C@H]8[C@@H](OC(C)=O)C[C@@]9(C)C7=CC[C@H]6C5(C)C)OC[C@@H](OS(=O)(=O)O)[C@@H]4O)O[C@@H]3C)OC[C@H]2O)O[C@H](CO)[C@H]1O (some centres unmarked) [djakonovioside A (1)]
UNIT_TEXT: µM
EC50 at 48 h: 4.45

Turning to the following compound.
Please give the measured EC50 at 48 h for this compound: CO[C@@H]1[C@@H](O)[C@H](O[C@@H]2[C@@H](O)[C@H](O[C@H]3[C@H](O)[C@@H](O)[C@H](O[C@H]4[C@H](O[C@H]5CC[C@]6(C)[C@@H]7CCC89C(=O)O[C@@](C)([C@H](O)C(=O)CC(C)C)[C@H]8[C@@H](OC(C)=O)C[C@@]9(C)C7=CC[C@H]6C5(C)C)OC[C@@H](OS(=O)(=O)O)[C@@H]4O)O[C@@H]3C)OC[C@H]2O)O[C@H](CO)[C@H]1O (some centres unmarked) [djakonovioside A1 (2)]
7.33

* * *

IC50 at 24 h listing for selected compounds.
Test: Cytotoxic activity (MTT assay)
Type: cell-based, human
Settings: human

COMPOUND: COC1C(O)C(CO)OC(OC2C(O)COC(OC3C(C)OC(OC4C(OC5CCC6(C)C7CCC89C(=O)OC%10(C)C(O)C(O)(CC(C)C)OC(CC8(C)C7=CCC6C5(C)C)C%109)OCC(OS(=O)(=O)O)C4O)C(O)C3O)C2O)C1O (centres unmarked) [djakonovioside A2 (3)]
IC50 at 24 h: > 50 µM

Turning to the following compound.
Please give the measured IC50 at 24 h for this compound: COC1C(O)C(CO)OC(OC2C(O)COC(OC3C(C)OC(OC4C(OC5CCC6(C)C7CCC89C(=O)OC%10(C)C(O)C(O)(CC(C)C)OC(CC8(C)C7=CCC6C5(C)C)C%109)OCC(OS(=O)(=O)O)C4O)C(OC4OCC(O)C(O)C4O)C3O)C2O)C1O (centres unmarked) [djakonovioside B4 (7)]
> 50 µM
